Assay comment: Physical form of choline-based ionic liquids at room temperature
Assay type: physicochemical
Settings: cation:anion 1:2, room temperature
Result type: Physical Form (Ratios Listed as Cation:Anion)

Examples with their reported Physical Form (Ratios Listed as Cation:Anion) follow.
C/C=C/C(=O)O    Liquid at 1:1, 1:2
CCCCCCC/C=C/C(=O)O [Trans-2-Decenoic Acid]    Solid at 1:1, 1:2
CC(=O)CCC(=O)O    Liquid at 1:1, 1:2
O=C(O)C(O)c1ccccc1 (stereo not shown)    Liquid at 1:1, 1:2
CCCCC/C=C\C/C=C\CCCCCCCC(=O)O    Liquid
CC(C)CCCC(C)CC(=O)O (stereo not shown)    Solid at 1:1, 1:2
O=C1CC[C@@H](C(=O)O)N1    Liquid
CCC(C)CCC(=O)O (stereo not shown)    Liquid at 1:1, 1:2

What Physical Form (Ratios Listed as Cation:Anion) value was documented for this compound, C=CCCCCCC(=O)O [Trans-7-Octenoic Acid] ?
Liquid at 1:1, 1:2

Param item: CCCCC(C)CCC(=O)O (stereo not shown)
Solid

Param item: CCC/C=C/C(=O)O [Trans-2-Hexenoic Acid]
Liquid at 1:1, 1:2

Param item: `CCCCCCCCCCCC(=O)O`
Solid at 1:1, 1:2

----------
Assay comment: Physical form of choline-based ionic liquids at room temperature
Format: physicochemical
Settings: cation:anion 2:1, room temperature
Result type: Physical Form (Ratios Listed as Cation:Anion)

O=C(O)CCCC(=O)O    Liquid at 2:1, 1:1
O=C(O)/C=C\C(=O)O    Liquid at 2:1, 1:1

----------
Assay comment: Physical form of choline-based ionic liquids at room temperature
Format: physicochemical
Settings: cation:anion 1:1, room temperature
Result type: Physical Form (Ratios Listed as Cation:Anion)

Examples with their reported Physical Form (Ratios Listed as Cation:Anion) follow.
CC(C)=CCC/C(C)=C/C(=O)O    Liquid at 1:1, 1:2
O=C(O)C(O)c1ccccc1 (stereo not drawn)    Liquid at 1:1, 1:2
CCC/C=C/C(=O)O [Trans-2-Hexenoic Acid]    Liquid at 1:1, 1:2
O=C(O)CC(O)C(=O)O (stereo not drawn)    Liquid at 2:1, 1:1
C=CCCCCCC(=O)O [Trans-7-Octenoic Acid]    Liquid at 1:1, 1:2

What Physical Form (Ratios Listed as Cation:Anion) value was documented for this molecule, `O=C(O)/C=C\C(=O)O` ?
Liquid at 2:1, 1:1

Param item: CC(O)C(=O)O (stereo not drawn)
Liquid at 1:1, 1:2

Param item: `CCCCC/C=C\C/C=C\C/C=C\C/C=C\CCCC(=O)O`
Solid at 1:1

----------
Assay comment: Physical form of choline-based ionic liquids at room temperature
Type: physicochemical
Settings: cation:anion 1:1, room temperature
Result type: Physical Form (Ratios Listed as Cation:Anion)

Examples with their reported Physical Form (Ratios Listed as Cation:Anion) follow.
CC(C)C1=CC2=CC[C@@H]3[C@](C)(CCC[C@@]3(C)C(=O)O)[C@H]2CC1    Solid at 1:1
C/C(=C\C(=O)O)C(=O)O    Solid
O=C1CC[C@@H](C(=O)O)N1    Solid
O=C1O[C@H]([C@@H](O)CO)C(O)=C1O    Solid at 1:1
C/C=C/C=C/C(=O)O    Liquid at 1:1, 1:2
CCCCCCCC(=O)O    Liquid

What Physical Form (Ratios Listed as Cation:Anion) value was documented for this compound, CCCCC/C=C/C(=O)O [Trans-2-Octenoic Acid] ?
Liquid at 1:1, 1:2

Param item: CC(C)CCCC(C)CC(=O)O (stereo not shown)
Solid at 1:1, 1:2

Param item: CCCC/C=C/CC(=O)O [Trans-3-Octenoic Acid]
Liquid at 1:1, 1:2

Param item: O=C(O)C1CC2C=CC1C2 (stereo not shown)
Solid at 1:1

Param item: O=C(O)[C@H](O)[C@@H](O)[C@@H](O)[C@H](O)CO [D-(+)-Galactonic Acid]
Solid at 1:1

Param item: `CCCCC/C=C\C/C=C\CCCCCCCC(=O)O`
Solid

Param item: `CCCCCCCCC(=O)O`
Solid at 1:1, 1:2

Param item: `O=C(O)CCCCCC(=O)O`
Liquid at 2:1, 1:1

Param item: `C/C=C/C(=O)O`
Liquid at 1:1, 1:2

Param item: CCC(C)CCC(=O)O (stereo not shown)
Liquid at 1:1, 1:2

----------
Assay comment: Physical form of choline-based ionic liquids at room temperature
Assay type: physicochemical
Settings: cation:anion 1:1, room temperature
Result type: Physical Form (Ratios Listed as Cation:Anion)

Examples with their reported Physical Form (Ratios Listed as Cation:Anion) follow.
CC(C)Cc1ccc(C(C)C(=O)O)cc1 (stereo not drawn) [2-(4-Isobutylphenyl)propionic Acid]    Solid at 1:1
CCC(=O)O [Propionic Acid]    Liquid at 2:1, 1:1
O=C(O)CO [Glycolic Acid]    Liquid at 2:1, 1:1
CC(=O)C(=O)O [Pyruvic Acid]    Liquid at 1:1, 1:2
CCCCCC[C@@H](O)C/C=C\CCCCCCCC(=O)O [Ricinoleic Acid]    Liquid at 1:1, 1:2
COc1cc(C(=O)O)cc(OC)c1O [Syringic Acid]    Solid at 1:1
O=P(O)(O)O [Phosphoric Acid]    Solid

What Physical Form (Ratios Listed as Cation:Anion) value was documented for this molecule, O=C(O)CNC(=O)c1ccccc1O [2-Hydroxyhippuric Acid] ?
Solid at 1:1
